Provenance of the data: the DeepSol protein solubility set

- assay comment: soluble on expression in E. coli; label from the status in PepcDB or PDB records
property label: soluble on expression in E. coli

INSERT INTO assay_data (chain_sequence, property_label, value_observed) VALUES
  ('NIPEIENANLKPALKDSVLPDGFYSTTNHPTHVKVNDEWIEVANPKMDAVIVVYPEEKRAETKVIRKVKKGDFVLIGHNGIRVMPPEKSREAGQLFEFMNSEVSSEKPKEAIIKRIAKEMHEIREEYKKTGTGGIAIVGGPAIIHTGGGPALAKMVELGYIQAILAGNALATHDIESALYGTSLGVNIKTAKPVTGGHKHHIYAINAINDAGNIKNAVESGVLKEGIMYQCIKNNIPYVLAGSIRDDGPIPDVITDSMVAQDKMRTTVMDKKMVIMLSTLLHSVATGNLMPSYIKTVCVDIQPSTVTKLMDRGTSQAIGVVTDVGVFLVLLLKELER', 'soluble on expression in E. coli', 'not soluble'),
  ('KKPDTLWVNKRVVKCPEEVAQQLAVEAGSDVFLLKRIRYVDEEAVSIEESWVPAHLIHDVDAIGISLYDYFRSQHIYPQRTRSRVSARMPDAEFQSHIQLDSKIPVLVIKQVALDQQQRPIEYSISHCR', 'soluble on expression in E. coli', 'not soluble'),
  ('MAHHHHHHMRCVRVVCQRFVEFVTFCSGVVPPLALLGYPLPGSGCQKTHPTALSLKGARVGDADAGNADTWLSRAIPRNWAAFCVNLQARGVGLVTVGLSYGSPSVVVRQVLGWGCGGNELRLYGFCRSSVLCRVWGVSVPLSAFTPCSVDDSIFSLLRYRIFRACAS', 'soluble on expression in E. coli', 'not soluble'),
  ('MSLLQVAPSAYRRHAARQRCPKLRSARSQRDEGLMAEIRRVWQANMQVYGVRKVWYQLQREGIAVARCTVERLMRRLGLQGVRRGKRVRTTIADGSQACSLDRVNRHFHADRPNQLWVSDFTYVSTWQGWLYVAFVIDVFARRIVGWRVSTTMSTDFVLDALEQALYDRRPAESLIHHSDRGSQYVSIRYTERLAEAGIEPSVGSRGDSYDNALAETINGLYKAELIHRRAPWKTRAAVELATLEWVAWYNHQRLLGSIGYIPPAQAEELYHRTHSETVPMNAVLEGHHHHHH', 'soluble on expression in E. coli', 'not soluble'),
  ('MGSDKIHHHHHHMNDPTFYRDGQGQPIQPDSAREAVAWLTQLMSDSVTEQDRREWQRWREASPDNEQAWQHIESVCANLGQLNARAAHQSLSTLNGMQRRSVLKALAILCLTGGAGMAGSRTDVWQSFTADYQTQVGEQRHAVLEDGTTLLLNTQTALNVAYGDDLRQLTLIRGEVMIETSQVEKAALYPRPFIVTTAQGKVQALGTRFSLRVQDEHTQVAVYDGAVRLHPQRNGQDVQVVKSGQTATFTTQRCGQIETEKAEPAWVKGQLLADNQRLVDFVDELSRYRSGVIRCQPEVESLRFSGVFPLSDTDNILAALAEALPVQVRYFSRYWVQIAAR', 'soluble on expression in E. coli', 'not soluble');
